# systemUnderTest: human histamine H4 receptor (Homo sapiens)
# Construct: membrane preparation
# Sequence (Q9H3N8 whole entry): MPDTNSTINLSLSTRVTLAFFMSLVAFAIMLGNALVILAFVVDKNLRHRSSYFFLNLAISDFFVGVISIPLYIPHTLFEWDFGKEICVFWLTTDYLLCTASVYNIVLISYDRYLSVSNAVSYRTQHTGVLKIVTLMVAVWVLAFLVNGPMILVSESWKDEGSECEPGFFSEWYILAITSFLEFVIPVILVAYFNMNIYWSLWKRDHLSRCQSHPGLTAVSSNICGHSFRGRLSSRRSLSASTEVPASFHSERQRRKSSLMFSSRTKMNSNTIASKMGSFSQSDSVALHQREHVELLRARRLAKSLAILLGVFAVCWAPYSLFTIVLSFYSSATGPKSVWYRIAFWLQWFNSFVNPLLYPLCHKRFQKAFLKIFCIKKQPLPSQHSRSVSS
# protocolNotes: Binding Assay on Recombinant Human Histamine H4 Receptor
# statedConditions: competition binding with 3H-histamine, membranes of SK-N-MC or COS7 cells transfected with human H4R; average of results obtained
Counter-ions that a name gives are not always drawn.
Binary label based on Ki with cut-off 10 nM: below gives 1.0, not below gives 0.0.

{"molecule": "CN[C@H]1CCN(c2nc(N)nc3c4c(sc23)CCCC4)C1 (single isomer, unassigned) [Example 31]", "label": 1.0}
{"molecule": "Nc1nc(N2CCCNCC2)c2oc3c(c2n1)CCCC3 [Example 22, trifluoroacetic acid salt]", "label": 1.0}
{"molecule": "CNC1CCN(c2nc(N)nc3c(Br)csc23)C1 (stereo in doubt)", "label": 0.0}
{"molecule": "Nc1nc(N2CC[C@@H](N)C2)c2oc3c(c2n1)CCCC3 [Example 24, trifluoroacetic acid salt]", "label": 1.0}
{"molecule": "CN1CCN(c2nc(N)nc3cc(C(C)(C)C)sc23)CC1 [Example 15, trifluoroacetic acid salt]", "label": 0.0}
{"molecule": "Nc1nc(N2C[C@H]3CCCN[C@H]3C2)c2oc3c(c2n1)CCCC3 [Example 20, trifluoroacetic acid salt]", "label": 1.0}
{"molecule": "Nc1nc(N2CC(N)C2)c2oc3c(c2n1)CC(F)(F)CC3 [Example 127, hydrochloride]", "label": 0.0}
{"molecule": "Nc1nc(N2CCN3CCCCC3C2)c2sc3c(c2n1)CCCC3 (centres unmarked) [Example 53, trifluoroacetic acid salt]", "label": 0.0}
{"molecule": "Nc1nc(N2CCNCC2)c2oc3c(c2n1)CCCC3", "label": 1.0}
{"molecule": "Nc1nc(N2CCNCC2)c2sc3c(c2n1)CC(F)(F)CC3 [Example 58, trifluoroacetic acid salt]", "label": 0.0}
{"molecule": "Nc1nc(N2CCn3cnnc3C2)c2sc3c(c2n1)CCCC3 [Example 54, trifluoroacetic acid salt]", "label": 0.0}
{"molecule": "Nc1nc(N2C[C@H]3CCN[C@H]3C2)c2oc3c(c2n1)CCCC3", "label": 1.0}
{"molecule": "Cc1csc2c(N3CCN(C)CC3)nc(N)nc12 [Example 13, trifluoroacetic acid salt]", "label": 0.0}
{"molecule": "Nc1nc(N2CC(N)C2)c2sc3c(c2n1)CCCC3 [Example 42, trifluoroacetic acid salt]", "label": 0.0}
{"molecule": "CN(CCN)c1nc(N)nc2c3c(sc12)CCC(F)(F)C3 [Example 115, trifluoroacetate]", "label": 0.0}
{"molecule": "CN1CCN(c2nc(N)nc3c4c(sc23)CCC(F)(F)C4)CC1 [Example 57, trifluoroacetic acid salt]", "label": 0.0}
{"molecule": "CNC1CCN(c2nc(N)nc3c4c(sc23)CCCCC4)C1 (stereo in doubt) [Example 47, trifluoroacetic acid salt]", "label": 1.0}
{"molecule": "CN1CCN(c2nc(N)nc3c4c(sc23)CCCCC4)CC1", "label": 0.0}
{"molecule": "CNC1CCN(c2nc(N)nc3c4c(oc23)CCCC4)C1 (stereo in doubt)", "label": 1.0}
{"molecule": "CC(C)(C)c1cc2nc(N)nc(N3CC4CCCNC4C3)c2s1 (centres unmarked) [Example 19, trifluoroacetic acid salt]", "label": 0.0}
{"molecule": "CCN1CCN(c2nc(N)nc3c4c(sc23)CCCC4)CC1 [Example 51, trifluoroacetic acid salt]", "label": 0.0}
{"molecule": "Nc1nc(N2CCNCC2)c2oc3c(c2n1)CC(F)(F)CC3 [Example 118, hydrochloride]", "label": 0.0}
{"molecule": "Nc1nc(N2CC[C@H](N)C2)c2oc3c(c2n1)CC(F)(F)CC3 [Example 126, hydrochloride]", "label": 1.0}
{"molecule": "CN[C@H]1CCN(c2nc(N)nc3c4c(sc23)CCC(C)C4)C1 (some centres unmarked) [Example 44, trifluoroacetic acid salt]", "label": 0.0}
{"molecule": "Nc1nc(N2CCN3CCCC3C2)c2sc3c(c2n1)CCCC3 (centres unmarked) [Example 52, trifluoroacetic acid salt]", "label": 0.0}
{"molecule": "CN1CCN(c2nc(N)nc3c4c(oc23)CCC(F)(F)C4)CC1 [Example 123, trifluoroacetate]", "label": 0.0}
{"molecule": "CC1CCc2sc3c(N4C[C@H]5CCCN[C@H]5C4)nc(N)nc3c2C1 (some centres unmarked) [Example 45, trifluoroacetic acid salt]", "label": 1.0}
{"molecule": "c1nc(N2CCNCC2)c2sc3c(c2n1)CCCC3", "label": 0.0}
{"molecule": "Nc1nc(N2CC[C@@H](N)C2)c2sc3c(c2n1)CC(F)(F)CC3 [Example 113, hydrochloride]", "label": 1.0}
{"molecule": "Nc1nc(N2CCNCC2)c2sc3c(c2n1)CCCC3", "label": 0.0}
{"molecule": "CC(C)(C)c1cc2nc(N)nc(N3CCNCC3)c2s1 [Example 17, trifluoroacetic acid salt]", "label": 0.0}
